Test: Liver Microsome Stability Assay (human)
Condition Summary: human liver microsomes, with NADPH, 1.0 uM compound
Readout Type: Liver Microsome Stability (Multiple Species): Human - % Remaining after 30 min w/NADPH

> print(dat)
                                   compound  result
1  C[C@@H](N)c1ccc(N2CCC[C@@H]2c2csc(NC(=O)c3cccn3Cc3ccncc3)n2)cc1   28.9%
2  CC1=NC(/C=C/c2csc(NC(=O)c3cccn3Cc3ccncc3)n2)CO1 (centres unmarked)    3.9%
3  CC1CCn2cnc(/C=C/c3csc(NC(=O)c4cccn4Cc4ccnc(F)c4)n3)c2C1 (centres unmarked)    0.3%
4  Cc1c(/C=C/c2csc(NC(=O)c3cccn3Cc3ccncc3)n2)ncn1C(C)C   0.28%
5  O=C(Nc1nc([C@H]2CCCN(c3ccccn3)C2)cs1)c1cccn1Cc1ccncc1   0.19%
6  Cc1c(/C=C/c2csc(NC(=O)c3cccn3Cc3ccnc(F)c3)n2)ncn1C(C)C   0.16%
7  N#CC1CC(Cn2cccc2C(=O)Nc2nc([C@H]3CCCN3c3ccccc3)cs2)C1 (some centres unmarked)     19%
8  Cc1cccc2nc(/C=C/c3csc(NC(=O)c4cccn4Cc4ccncc4)n3)cn12   1.11%

###

The reader will find reported IC50 values listed item by item below.
Tested on: TNFα-FL/Gaussia Luciferase
Test: Dox Induced TNFα-FL-Gluc Assay
Assay type: cell-based
Condition Summary: 24 hr Dox induction; 293FRT/TO cells; read-out: 24 hr Dox Inducible TNFaFLGluc 293FRT/TO: Mean IC50
Readout Type: IC50 (µM)

> print(dat)
                                   compound                 target.desc  readout.qualifier  numeric.value
1  CC(=O)N1CC(OC(=O)Nc2ccc(N3CCC[C@@H]3c3csc(NC(=O)c4cccn4Cc4ccnc(F)c4)n3)cc2)C1  TNFα-FL/Gaussia Luciferase                  =          0.138
2  O=C(Nc1nc(/C=C/c2cn(C3CCCCC3)cn2)cs1)c1cccn1Cc1ccncc1  TNFα-FL/Gaussia Luciferase                  =           9.42
3  CN1CCOC(/C=C/c2csc(NC(=O)c3cccn3Cc3ccncc3)n2)C1 (stereo not shown)  TNFα-FL/Gaussia Luciferase                  >             25
4  O=C(Nc1nc([C@H]2CCCN2c2ccc(O[C@@H]3CCOC3)cc2)cs1)c1cccn1Cc1ccncc1  TNFα-FL/Gaussia Luciferase                  =          0.171

###

Test: Liver Microsome Stability Assay (human)
Condition Summary: human liver microsomes, with NADPH, 1.0 uM compound
Readout Type: Liver Microsome Stability (Multiple Species): Human - % Remaining after 30 min w/NADPH (%)

> print(dat)
                                    molecule  scale.unit  numeric.value
 1  CC(C)n1ccc(/C=C/c2csc(NC(=O)c3cccn3Cc3ccncc3)n2)n1           %           2.26
 2  N#CCC1(Cn2cccc2C(=O)Nc2nc([C@H]3CCCN3c3ccccc3)cs2)CCC1           %           3.68
 3  COC(=O)Nc1ccc(N2CCC[C@@H]2c2csc(NC(=O)c3cccn3Cc3ccnc(F)c3)n2)nc1           %           1.38
 4  CN(C)C(=O)N1CCC(Oc2ccc(N3CCC[C@@H]3c3csc(NC(=O)c4cccn4Cc4ccnc(F)c4)n3)cc2)CC1           %           4.35
 5  Cc1ccc(N2CCC[C@@H]2c2csc(NC(=O)c3cccn3CC3CCOCC3)n2)cc1           %           63.8
 6  O=C(Nc1nc([C@H]2CCCN2c2ccccc2)cs1)c1cccn1CCCc1cccnc1           %           0.37
 7  O=C(Nc1nc([C@H]2CCCN2c2ccc(O[C@H]3CCOC3)cc2)cs1)c1cccn1Cc1ccncc1           %           4.21
 8  O=C(Nc1nc([C@H]2CCCN2c2ccc(C3CCCNC3)cc2)cs1)c1cccn1Cc1ccncc1 (stereo partly shown)           %           2.45
 9  N#Cc1cc(C(=O)Nc2nc([C@H]3CCCN3c3ccccc3)cs2)n(Cc2ccnc(F)c2)c1           %           25.9
10  CC(=O)N(C)c1ccc(N2CCC[C@@H]2c2csc(NC(=O)c3cccn3Cc3ccncc3)n2)cc1           %           1.82
11  O=C(Nc1nc([C@H]2CCCN2c2ccccc2)cs1)c1cccn1CC1CCC(F)(F)C1 (stereo partly shown)           %           58.5
12  O=C(Nc1nc([C@H]2CCCN2c2ccccc2)cs1)c1cccn1CCc1nnn[nH]1           %           8.13
13  Cc1cccc2nc(/C=C/c3csc(NC(=O)c4cccn4Cc4ccnc(F)c4)n3)cn12           %           0.35
14  O=C(Nc1nc([C@H]2CCCN2c2cccnc2)cs1)c1cccn1Cc1ccncc1           %           7.36
15  CN(C)S(=O)(=O)N1CC(Oc2ccc(N3CCC[C@@H]3c3csc(NC(=O)c4cccn4Cc4ccnc(F)c4)n3)cc2)C1           %           7.55
16  Cc1c(/C=C/c2csc(NC(=O)c3cccn3Cc3ccnc(F)c3)n2)ncn1C(C)CO (stereo not shown)           %           0.37
17  CC(=O)NCc1ccc(N2CCC[C@@H]2c2csc(NC(=O)c3cccn3CC3CCOCC3)n2)cc1           %           3.01
18  COc1ccc(O[C@@H]2CC[C@H](c3csc(NC(=O)c4cccn4Cc4ccncc4)n3)C2)nc1           %           0.09
19  O=C(Nc1nc([C@H]2CCCN2C2COC2)cs1)c1cccn1Cc1ccncc1           %           0.09
20  CC(C)n1cnc(/C=C/c2csc(NC(=O)c3cccn3Cc3ccncc3)n2)c1           %           0.13
21  CC(=O)N1CCC(Oc2cc(F)c(N3CCC[C@@H]3c3csc(NC(=O)c4cccn4Cc4ccnc(F)c4)n3)c(F)c2)CC1           %           0.87
22  NCc1ccc(N2CCC[C@@H]2c2csc(NC(=O)c3cccn3Cc3ccncc3)n2)cc1           %           28.6
23  CCn1cnc(/C=C/c2csc(NC(=O)c3cccn3Cc3ccncc3)n2)c1           %           0.01
24  O=C(Nc1nc(/C=C/c2ncoc2C2CCCCC2)cs1)c1cccn1Cc1ccnc(F)c1           %           5.98
25  CNCCOc1ccc(N2CCC[C@@H]2c2csc(NC(=O)c3cccn3Cc3ccnc(F)c3)n2)cc1           %             67
26  N#CC[C@@H]1CC[C@H]1Cn1cccc1C(=O)Nc1nc([C@H]2CCCN2c2ccccc2)cs1           %           0.07
27  Nc1ccc(N2CCC[C@@H]2c2csc(NC(=O)c3cccn3Cc3ccncc3)n2)cc1           %           4.63
28  N#Cc1ccccc1Cn1cccc1C(=O)Nc1nc([C@H]2CCCN2c2ccccc2)cs1           %           27.3
29  CC(C)n1cnc(-c2cccc(-c3csc(NC(=O)c4cccn4Cc4ccnc(F)c4)n3)c2)c1           %           0.06
30  O=C(Nc1nc(/C=C/c2cn3c(n2)CCC3)cs1)c1cccn1Cc1ccnc(F)c1           %            0.2
31  NC(=O)N1CC(Oc2ccc(N3CCC[C@@H]3c3csc(NC(=O)c4cccn4Cc4ccnc(F)c4)n3)cc2)C1           %           32.5

###

Test: Liver Microsome Stability Assay (mouse)
Condition Summary: mouse liver microsomes, with NADPH, 1.0 uM compound
Readout Type: Liver Microsome Stability (Multiple Species): Mouse - % Remaining after 30 min w/NADPH

> print(dat)
                                    molecule  result
 1  CCc1ccc(N2CCC[C@@H]2c2csc(NC(=O)c3cccn3CC3CCOCC3)n2)nc1 [Compound C85]   21.3%
 2  CNS(=O)(=O)N1CC(Oc2ccc(N3CCC[C@@H]3c3csc(NC(=O)c4cccn4Cc4ccnc(F)c4)n3)cc2)C1 [Compound A151]   15.3%
 3  O=C(Nc1nc([C@H]2CCCN2c2ccccc2)cs1)c1cccn1Cc1cccc(Cl)c1 [Compound C122]   50.6%
 4  N#CCCCCn1cccc1C(=O)Nc1nc([C@H]2CCCN2c2ccccc2)cs1 [Compound C1]   23.2%
 5  COC(=O)Nc1ccc(N2CCC[C@@H]2c2csc(NC(=O)c3cccn3Cc3ccnc(F)c3)n2)nc1 [Compound A175]   1.57%
 6  N#Cc1cccc(Cn2cccc2C(=O)Nc2nc([C@H]3CCCN3c3ccccc3)cs2)c1 [Compound C49]   29.1%
 7  CC(=O)N1CC(CCc2ccc(N3CCC[C@@H]3c3csc(NC(=O)c4cccn4Cc4ccnc(F)c4)n3)cc2)C1 [Compound A176]   2.72%
 8  O=C(Nc1nc([C@@H]2CCCN2c2ccc(C(F)(F)F)cc2)cs1)c1cccn1Cc1ccnc(F)c1 [Compound A142]   60.5%
 9  O=C(Nc1nc(/C=C/c2cn3ccccc3n2)cs1)c1cccn1Cc1ccncc1 [Compound B50]   0.94%
10  O=C(Nc1nc(/C=C/c2cnccn2)cs1)c1cccn1Cc1ccncc1 [Compound B43]   1.19%
11  CC(=O)N[C@@H](C)c1ccc(N2CCC[C@@H]2c2csc(NC(=O)c3cccn3Cc3ccnc(F)c3)n2)cc1 [Compound A69]   12.1%
12  N#Cc1cc(C(=O)Nc2nc([C@H]3CCCN3c3ccccc3)cs2)n(Cc2ccnc(F)c2)c1 [Compound A149]     46%
13  O=C(Nc1nc([C@H]2CCCN2c2ccccc2)cs1)c1cccn1CCCc1nnn[nH]1 [Compound C14]   57.8%
14  Cc1ocnc1/C=C/c1csc(NC(=O)c2cccn2Cc2ccnc(F)c2)n1 [Compound B47]   30.8%
15  O=C(Nc1nc([C@H]2CCCN(c3ccccn3)C2)cs1)c1cccn1Cc1ccncc1 [Compound E45]   2.25%
16  CC(C)OC(=O)Nc1ccc(N2CCC[C@@H]2c2csc(NC(=O)c3cccn3Cc3ccnc(F)c3)n2)cc1 [Compound A146]   34.8%
17  O=C(O)CCCn1cccc1C(=O)Nc1nc([C@H]2CCCN2c2ccccc2)cs1 [Compound C13]   64.9%
18  Cc1cc(Cn2cccc2C(=O)Nc2nc([C@H]3CCCN3c3ccccc3)cs2)ccn1 [Compound A52]   3.47%
19  O=C(Nc1nc([C@H]2CCCN2c2ccc(-c3ncco3)cc2)cs1)c1cccn1Cc1ccncc1 [Compound A9]   19.8%
20  O=C(Nc1nc([C@H]2C[C@@H](OCCO)CN2c2ccccc2)cs1)c1cccn1Cc1ccncc1 [Compound E32]    3.3%
21  Cc1coc(/C=C/c2csc(NC(=O)c3cccn3Cc3ccncc3)n2)n1 [Compound B41]   0.36%
22  COc1ccc(O[C@H]2CC[C@H](c3csc(NC(=O)c4cccn4Cc4ccncc4)n3)C2)nc1 [Compound E38]   0.25%
23  N#CCc1ccccc1Cn1cccc1C(=O)Nc1nc([C@H]2CCCN2c2ccccc2)cs1 [Compound C93]   16.3%
24  Cc1ccc(N2CCC[C@@H]2c2csc(NC(=O)c3cccn3Cc3ccncc3)n2)nc1 [Compound E62]   1.51%
25  CC(=O)N(C)C/C=C/c1csc(NC(=O)c2cccn2Cc2ccncc2)n1 [Compound E15]   0.54%
26  CC(=O)Nc1ccc(N2CCC[C@@H]2c2csc(NC(=O)c3cccn3Cc3ccnc(F)c3)n2)c(F)c1 [Compound A98]   1.29%
27  O=C(Nc1nc([C@H]2CCCN2c2ccc(OC3CCNCC3F)cc2)cs1)c1cccn1Cc1ccnc(F)c1 (stereo partly shown) [Compound A107]      6%
28  NC(=O)CCCCn1cccc1C(=O)Nc1nc([C@H]2CCCN2c2ccccc2)cs1 [Compound C58]     17%
29  CNC(=O)N1CC(Oc2ccc(N3CCC[C@@H]3c3csc(NC(=O)c4cccn4Cc4ccnc(F)c4)n3)cc2)C1 [Compound A125]   45.1%
30  COC(=O)Nc1ccc(N2CCC[C@@H]2c2csc(NC(=O)c3cccn3Cc3ccnc(F)c3)n2)cc1 [Compound A144]   20.2%
31  O=C(Nc1nc([C@H]2CCCN2c2ccc(C3(O)CCC3)cc2)cs1)c1cccn1Cc1ccnc(F)c1 [Compound A114]     13%

meta.source: patent US20230286973A1
